# System: spontaneously hypertensive rats
# PROTOCOL_DETAILS: Antihypertensive effects in spontaneously hypertensive rats, oral, tail cuff method
# Assay type: in vivo
# CONDITION_CONTEXT: 10 mg/Kg p.o.; systolic blood pressure higher than 150 mmHg
OBSERVATION_TYPE: Change in systolic blood pressure at stated dose p.o.
Please state the value followed by its unit.

Noted for CCC(Cc1ccc(C)c(S(N)(=O)=O)c1)NCCOc1ccccc1OC.Cl (stereo not shown) : its Change in systolic blood pressure at stated dose p.o. reads -46 ± 4.3 mmHg

Noted for COc1ccccc1OCCNC(C)Cc1ccc(OC)c(S(N)(=O)=O)c1.Cl (stereo not shown) : its Change in systolic blood pressure at stated dose p.o. reads -71 ± 11.1 mmHg

Noted for COc1ccccc1OCCNCC(O)c1ccc(C)c(S(N)(=O)=O)c1 (stereo not shown) [Compound A, reference compound] : its Change in systolic blood pressure at stated dose p.o. reads -35 ± 6.4 mmHg

Noted for COc1ccccc1OCCNC(C)Cc1ccc(C)c(S(N)(=O)=O)c1.Cl (stereo not shown) : its Change in systolic blood pressure at stated dose p.o. reads -46 ± 3.6 mmHg
